# targetSystem: hGIPR (Homo sapiens, UniProt P48546)
# Sequence (P48546 22-466): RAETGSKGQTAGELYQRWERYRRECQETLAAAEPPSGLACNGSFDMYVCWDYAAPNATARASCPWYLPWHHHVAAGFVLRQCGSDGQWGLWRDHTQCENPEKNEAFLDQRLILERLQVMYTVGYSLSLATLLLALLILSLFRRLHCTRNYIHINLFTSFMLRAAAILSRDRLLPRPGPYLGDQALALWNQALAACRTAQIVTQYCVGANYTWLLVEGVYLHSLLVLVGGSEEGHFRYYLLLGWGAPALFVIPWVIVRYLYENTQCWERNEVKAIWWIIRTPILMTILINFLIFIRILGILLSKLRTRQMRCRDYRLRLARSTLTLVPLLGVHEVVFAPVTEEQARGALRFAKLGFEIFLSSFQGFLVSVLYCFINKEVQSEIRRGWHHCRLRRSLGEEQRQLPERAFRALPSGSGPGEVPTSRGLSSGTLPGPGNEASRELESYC
# procedureText: Functional cAMP activation in the presence of 0.1% casein (no HSA);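 also: intracellular cAMP rise after 30 min at 37 °C read by HTRF against a standard curve, scaled between buffer alone (0%) and top control ligand concentration (100%), four-parameter fit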
# Type: cell-based
# assaySetup: in the presence of 0.1% casein (no HSA); geometric mean; read-out: Relative cAMP EC50, hGIPR
Starred links: 1 amine or outer side, 2 acyl side, 3 side chain; linkers in the order of their positions; H or OH if unused. Non-standard residues stand in square brackets, D forms with d. Groups on a side chain read outwards from the residue. *: point of attachment. C20 diacid = O=C(O)CCCCCCCCCCCCCCCCCCC(=O)*; C18 diacid = O=C(O)CCCCCCCCCCCCCCCCC(=O)*; Phe(4-CN) = N#Cc1ccc(C[C@H](N)C(=O)O)cc1; αMePhe(2-F) = C[C@](N)(Cc1ccccc1F)C(=O)O; γGlu = O=C(O)[C@H](CCC(=O)[*:2])N[*:1]; NMeY = CN[C@@H](Cc1ccc(O)cc1)C(=O)O; αMe4Pal = C[C@](N)(Cc1ccncc1)C(=O)O; αMeY = C[C@](N)(Cc1ccc(O)cc1)C(=O)O; αMeF = C[C@](N)(Cc1ccccc1)C(=O)O; 4Pal = N[C@@H](Cc1ccncc1)C(=O)O; αMeL = CC(C)C[C@](C)(N)C(=O)O; αMeS = C[C@](N)(CO)C(=O)O; Orn = NCCC[C@H](N)C(=O)O; AEEA = NCCOCCOCC(=O)O; Aib = CC(C)(N)C(=O)O
# pEC50 values compiled below
Interpret pEC50 as the negative base-10 log of the concentration measured in mol/L.

Use these answered entries as a reference point.
substance	observedMeasurement
H-Y[Aib]QGTFTSD[4Pal]S[Orn][αMeL]LDKK([γGlu-γGlu-C18 diacid])AQ[αMe4Pal]AFIE[αMeY]LIEGGPSSGAPPPSGSEE-NH2 [Example 967]	9.69
H-[NMeY][Aib]QGT[αMeF]TSDYSSLLDKIAAK([AEEA-AEEA-γGlu-C20 diacid])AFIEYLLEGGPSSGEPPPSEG-NH2 [Example 297]	9.20
H-Y[Aib]QGTFTSD[4Pal]SQ[αMeL]LD[Orn]K([γGlu-γGlu-C18 diacid])AQ[Aib]AFIE[αMeY]LLEGGPSSGAPPPSGSEE-NH2 [Example 946]	9.45

Given the substance H-[NMeY][Aib]QGT[αMeF]TSDYSILLDKQAAK([AEEA-AEEA-γGlu-C20 diacid])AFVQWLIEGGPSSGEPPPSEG-NH2 [Example 302] , what is its reported pEC50?
9.15

Also, H-Y[Aib]QGTFTSDFSK[αMeL]LDKK([AEEA-γGlu-C20 diacid])AQ[Aib]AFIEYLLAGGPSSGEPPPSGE[AEEA]-NH2 [Example 33] please.
9.55

Also, H-Y[Aib]QGT[αMePhe(2-F)]TSD[Phe(4-CN)]SKLLDKIAQK([AEEA-γGlu-C20 diacid])AFIEYLIEGGPSSGEPPPSGS-NH2 [Example 364] please.
9.34

Also, H-Y[Aib]QGTFTSDFS[Orn][αMeL]LDKK([γGlu-γGlu-C18 diacid])AQ[Aib]AFIEYLLAGGPSSGAPPPEGSEE-NH2 [Example 1051] please.
9.76

Also, H-Y[Aib]QGTFTSDFS[Orn][αMeL]LDKK([AEEA-γGlu-C20 diacid])AQ[Aib]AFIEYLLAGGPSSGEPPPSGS-NH2 [Example 92] please.
9.67

Also, H-Y[Aib]QGT[αMeF]TSD[4Pal][αMeS]I[αMeL]LD[Orn]K([γGlu-γGlu-C18 diacid])AQ[αMe4Pal]EFI[dE][αMeY]LIEGGPSSGAPPPSGSE-NH2 [Example 1172] please.
11.05

Also, H-Y[Aib]QGTFTSDFSK[αMeL]LDKK([AEEA-γGlu-C20 diacid])AQ[Aib]AFIEYLLAGGPSSGEPPPGEG-NH2 [Example 31] please.
9.60

Also, H-Y[Aib]QGTFTSDFS[Orn][αMeL]LDKK([AEEA-γGlu-C18 diacid])AQ[Aib]AFIEWLLEGGHSSGAPPPEGS-NH2 [Example 126] please.
9.58

Also, H-Y[Aib]QGTFTSD[4Pal]SK[αMeL]LDKK([γGlu-γGlu-C18 diacid])AQ[Aib]AFIEYLIE[Aib]GPSSGAPPPSGSEEE-NH2 [Example 906] please.
9.67

Hey, just so you know, these numbers are from patent US20240270821A1.
